Every entry's value here was drawn from PubChem BioAssay AID1963976.

# Test system: 435261-313-R-J1-PDC tumor spheroid viability;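 also: spheroids exposed to compounds for 7 days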
# measurement.protocol: Anticancer human tumor 435261-313-R-J1-PDC patient-derived colon adenocarcinoma cell line growth inhibition [PI3K]
# conditions.used: second compound 0.0316 µM; first compound 0.1 µM; hits give low values; spheroids with HUVEC and MSC
viability, T/C listing for selected molecules.
State the answer as a number, implicitly in %.

Use the examples below as a reference point.
molecule: C[C@@H](NC(=O)c1ncnc(N)c1Cl)c1ncc(C(=O)Nc2cc(C(F)(F)F)c(Cl)cn2)s1 + CC(Nc1ccc2c(c1)OCCn1cc(N3C(=O)OCC3C(F)F)nc1-2)C(N)=O
readout.name: viability, T/C
endpoint.value: 126
//
molecule: CC(Cn1ccc(-c2ccc(C#N)c(Cl)c2)n1)NC(=O)c1cc(C(C)O)[nH]n1 (stereo unspecified) + Cc1nc(NC(=O)N2CCCC2C(N)=O)sc1-c1ccnc(C(C)(C)C(F)(F)F)c1
readout.name: viability, T/C
endpoint.value: 71.6
//
molecule: C[C@@H](NC(=O)c1ncnc(N)c1Cl)c1ncc(C(=O)Nc2cc(C(F)(F)F)c(Cl)cn2)s1 + CC(Nc1ncnc2nc[nH]c12)c1cc2cccc(Cl)c2c(=O)n1-c1ccccc1
readout.name: viability, T/C
endpoint.value: 182

Prompt line: Sample CC(C)n1nc(-c2ccc3oc(N)nc3c2)c2c(N)ncnc21 + Cc1nc(NC(=O)N2CCCC2C(N)=O)sc1-c1ccnc(C(C)(C)C(F)(F)F)c1 — what was its viability, T/C?
Response line: 13.6

Prompt line: Sample Cn1ncc(Cl)c1-c1cc(C(=O)NC(CN)Cc2cccc(F)c2)sc1Cl (stereo unspecified) + Cc1nc(NC(=O)N2CCCC2C(N)=O)sc1-c1ccnc(C(C)(C)C(F)(F)F)c1 — what was its viability, T/C?
Response line: 67.3

Prompt line: Sample C=CC(=O)N1CCN(c2nc(=O)n(-c3c(C)ccnc3C(C)C)c3nc(-c4c(O)cccc4F)c(F)cc23)C(C)C1 (stereo unspecified) + CC(Nc1ncnc2nc[nH]c12)c1cc2cccc(Cl)c2c(=O)n1-c1ccccc1 — what was its viability, T/C?
Response line: 84.8

Prompt line: Sample Cn1ncnc1[C@H]1c2n[nH]c(=O)c3cc(F)cc(c23)N[C@@H]1c1ccc(F)cc1 + Cc1nc(NC(=O)N2CCCC2C(N)=O)sc1-c1ccnc(C(C)(C)C(F)(F)F)c1 — what was its viability, T/C?
Response line: 66.4

Prompt line: Sample Cn1ncc(Cl)c1-c1cc(C(=O)NC(CN)Cc2cccc(F)c2)sc1Cl (stereo unspecified) + CC(Nc1ncnc2nc[nH]c12)c1cc2cccc(Cl)c2c(=O)n1-c1ccccc1 — what was its viability, T/C?
Response line: 74.4

Prompt line: Sample C=CC(=O)N1CCN(c2nc(=O)n(-c3c(C)ccnc3C(C)C)c3nc(-c4c(O)cccc4F)c(F)cc23)C(C)C1 (stereo unspecified) + COc1c(OCCCN2CCOCC2)ccc2c3n(c(=NC(=O)c4cnc(N)nc4)nc12)CCN3 — what was its viability, T/C?
Response line: 36.7

Prompt line: Sample CC1(C)CCC(CN2CCN(c3ccc(C(=O)NS(=O)(=O)c4ccc(NCC5CCOCC5)c([N+](=O)[O-])c4)c(Oc4cnc5[nH]ccc5c4)c3)CC2)=C(c2ccc(Cl)cc2)C1 + CC(Nc1ccc2c(c1)OCCn1cc(N3C(=O)OCC3C(F)F)nc1-2)C(N)=O — what was its viability, T/C?
Response line: 59.2

Prompt line: Sample Cn1ncc(Cl)c1-c1cc(C(=O)NC(CN)Cc2cccc(F)c2)sc1Cl (stereo unspecified) + CC(Nc1ccc2c(c1)OCCn1cc(N3C(=O)OCC3C(F)F)nc1-2)C(N)=O — what was its viability, T/C?
Response line: 91.3
